# credit: patent US20200407433A1

Can you tell me kon for the items I'm about to list?
Molecular target: T1, human Calcitonin Gene-Related Peptide (CGRP) (human, not fully specified)
T1 construct: also called hCGRP; Human CGRP
T1 peptide: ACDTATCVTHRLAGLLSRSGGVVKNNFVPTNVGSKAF
Experiment: SPR Biacore 8k; antibody amine-coupled to chip, CGRP as analyte
One number for each entry, in M⁻¹ s⁻¹.

INSERT INTO measurements (binder, experimental_readout, uom, numeric_readout) VALUES
  ('REMD 128.1 (antibody, human IgG4 S228P, kappa, V domains shown, Humanized full-length IgG (IgG4 constant region, kappa); also called IgG 11 (H3/L3); 11 (H3/L3)) VH: QVQLVQSGAEVVKPGASVKVSCKASGYTFTDYYMNWVKQAPGQGLEWIGDVNPNNGGTHYNQKFKGRVTLTVDTSISTAYMELSRLRSDDTAVYYCASITIVPVYFDFWGQGTLVTVSS VL: DIQLTQSPSFLSTSVGDRVTITCKASQNVGPNVAWYRQKPGKSPKALIYSASYRYSGVPSRFSGSGSGTEFTLTISSLQPEDFATYICQQYNYYPYTFGQGTKLEIKR', 'kon', 'M⁻¹ s⁻¹', '4.86e+06');

Parameters: items (list). Returns: kon for each item.
1. REMD 128.2 (antibody, human IgG4 S228P, kappa, V domains shown, Humanized full-length IgG (IgG4 constant region, kappa); also called IgG 15 (H4/L3); 15 (H4/L3)) VH: QVQLVQSGAEVVKPGASVKISCKASGYTFTDYYMNWVKQAPGQGLEWIGDVNPNNGGTHYNQKFKGRATLTVDTSISTAYMELSRLRSDDTAVYYCASITIVPVYFDFWGQGTLLTVSS VL: DIQLTQSPSFLSTSVGDRVTITCKASQNVGPNVAWYRQKPGKSPKALIYSASYRYSGVPSRFSGSGSGTEFTLTISSLQPEDFATYICQQYNYYPYTFGQGTKLEIKR
2. REMD 128 (antibody, human IgG4 S228P, kappa, V domains shown, Humanized full-length IgG (IgG4 constant region, kappa); also called IgG 10 (H3/L2); 10 (H3/L2)) VH: QVQLVQSGAEVVKPGASVKVSCKASGYTFTDYYMNWVKQAPGQGLEWIGDVNPNNGGTHYNQKFKGRVTLTVDTSISTAYMELSRLRSDDTAVYYCASITIVPVYFDFWGQGTLVTVSS VL: DIQLTQSPSFLSASVGDRVTITCKASQNVGPNVAWYRQKPGKAPKALIYSASYRYSGVPSRFSGSGSGTEFTLTISSLQPEDFATYICQQYNYYPYTFGQGTKLEIKR

4.97e+06
4.23e+06
